The origin of these recorded values is patent US9072734B2.

MEASURED_TARGET: human M3 muscarinic receptor (Homo sapiens)
Construct: expressed in transfected cells; host or cells: CHO-K1
Sequence (P20309 whole entry): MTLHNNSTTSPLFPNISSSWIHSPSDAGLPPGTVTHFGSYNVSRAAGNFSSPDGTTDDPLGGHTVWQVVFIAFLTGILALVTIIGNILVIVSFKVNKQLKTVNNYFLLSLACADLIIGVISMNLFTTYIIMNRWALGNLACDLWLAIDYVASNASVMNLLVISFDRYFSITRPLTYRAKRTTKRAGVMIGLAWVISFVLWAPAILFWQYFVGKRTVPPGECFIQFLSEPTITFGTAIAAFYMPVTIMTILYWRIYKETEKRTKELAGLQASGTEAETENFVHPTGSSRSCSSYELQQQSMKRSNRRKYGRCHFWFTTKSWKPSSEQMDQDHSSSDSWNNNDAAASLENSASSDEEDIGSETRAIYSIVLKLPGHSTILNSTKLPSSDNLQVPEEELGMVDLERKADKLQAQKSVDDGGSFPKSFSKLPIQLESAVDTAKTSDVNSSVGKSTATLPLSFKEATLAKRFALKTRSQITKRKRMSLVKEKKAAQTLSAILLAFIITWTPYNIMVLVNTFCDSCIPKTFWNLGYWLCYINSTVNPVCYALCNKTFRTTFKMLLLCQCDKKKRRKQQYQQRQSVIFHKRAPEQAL
ASSAY_INFO: Inhibitory effect on methacholine-induced calcium influx, FLIPR assay, CHO-K1 cells stably expressing the human M3 muscarinic receptor
Type: cell-based
MEASUREMENT_PARAMETERS: inhibition of calcium influx induced by methacholine
Where a name gives a salt, the structure may show the parent alone.
IC50 by entry:
Your answer should be a plain number; it is taken to be in µM.

Use the examples below as a reference point.
COc1cc(NC(=O)CCCCc2ccc(-c3ccccc3)c(NC(=O)OC3C[C@@H]4[C@H]5O[C@H]5[C@H](C3)[N+]4(C)C)c2)c(Cl)cc1CNC[C@H](O)c1ccc(O)c2[nH]c(=O)ccc12 (some centres unmarked) ... 0.0328
C[N+]1(C)CCC(OC(=O)Nc2cc(CCCOCCCCCNC[C@H](O)c3ccc(O)c4[nH]c(=O)ccc34)ccc2-c2ccccc2)CC1 [Example 78, trifluoroacetate] ... 0.0741
COc1cc(NC(=O)CCCc2ccc(NC(=O)O[C@@H]3C[C@@H]4[C@H]5O[C@H]5[C@H](C3)[N+]4(C)C)c(-c3ccccc3)c2)c(Br)cc1CNC[C@H](O)c1ccc(O)c2[nH]c(=O)ccc12 ... 0.0603

[in] Quote IC50 reported for COc1cc(NC(=O)CCCc2ccc(-c3ccccc3)c(NC(=O)O[C@@H]3C[C@@H]4[C@H]5O[C@H]5[C@H](C3)[N+]4(C)C)c2)ccc1CNC[C@H](O)c1ccc(O)c2[nH]c(=O)ccc12 please.
[out] 0.0271

[in] Quote IC50 reported for C[N+]1(C)CCC(OC(=O)Nc2cc(CNC(=O)COc3ccc(CNC[C@H](O)c4ccc(O)c5[nH]c(=O)ccc45)cc3)ccc2-c2ccccc2)CC1 please.
[out] 0.0251
